# methodSummary: Cmax in ICR mouse at 5 mg/kg, po measured after 24 hrs
# Format: ADME, organism-based
# conditionsUsed: in vivo
measuredAttribute: Cmax (ng/mL)

{"smilesCode": "COc1cccc([C@@]2(O)CC[C@H](N(Cc3ccccc3)S(=O)(=O)c3cccc(Cl)c3)C[C@@H]2CN(C)C)c1.Cl", "measuredAttribute": "Cmax", "valueReported": 3.87}

###

# methodSummary: AUC (0 to infinity) in ICR mouse at 5 mg/kg, po measured after 24 hrs
# Type: ADME, organism-based
# conditionsUsed: in vivo
measuredAttribute: AUC(0-inf) (ng·h/mL)

{"smilesCode": "COc1cccc([C@@]2(O)CC[C@H](N(Cc3ccccc3)S(=O)(=O)c3cccc(Cl)c3)C[C@@H]2CN(C)C)c1.Cl", "measuredAttribute": "AUC(0-inf)", "readingUnit": "ng·h/mL", "valueReported": 1.64}

###

# methodSummary: AUC (0 to t) in ICR mouse at 2 mg/kg, iv measured after 24 hrs
# Assay type: ADME, organism-based
# conditionsUsed: in vivo

{"smilesCode": "COc1cccc([C@@]2(O)CC[C@H](N(Cc3ccccc3)S(=O)(=O)c3cccc(Cl)c3)C[C@@H]2CN(C)C)c1.Cl", "AUC(0-t) at 24 h / ng·h/mL": 131}

###

# system: Kappa-type opioid receptor (Homo sapiens, UniProt P41145)
# Sequence (P41145 whole entry): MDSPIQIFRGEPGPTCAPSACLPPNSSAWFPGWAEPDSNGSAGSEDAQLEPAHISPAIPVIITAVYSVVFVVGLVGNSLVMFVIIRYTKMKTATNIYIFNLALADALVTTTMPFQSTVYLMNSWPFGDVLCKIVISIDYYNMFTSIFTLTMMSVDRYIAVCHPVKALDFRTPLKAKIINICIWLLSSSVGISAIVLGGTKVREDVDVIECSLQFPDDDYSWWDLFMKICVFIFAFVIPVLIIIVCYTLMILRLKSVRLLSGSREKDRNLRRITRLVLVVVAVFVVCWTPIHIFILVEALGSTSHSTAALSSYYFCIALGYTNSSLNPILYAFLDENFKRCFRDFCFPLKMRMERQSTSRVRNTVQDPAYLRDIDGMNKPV
# methodSummary: Binding affinity to human kappa-opioid receptor extracted from CHO cell membrane assessed as inhibition constant incubated for 60 mins in presence of [3H]U69593 by radioligand binding assay
# Assay type: cell membranes
measuredAttribute: Ki

{"smilesCode": "CN(C)C[C@@H]1CN(CCc2cccc(C(F)(F)F)c2)CC[C@@]1(O)c1cccc(O)c1", "valueReported": "25.8 nM"}

###

Listing of entries alongside the reported inhibition.
# system: Delta-type opioid receptor (Rattus norvegicus)
# methodSummary: Displacement of [3H] DPDPE from rat delta-opioid receptor extracted from CHO cell membrane at 0.1 uM by liquid scintillation counting analysis relative to control
# Format: cell membranes
measuredAttribute: inhibition (%)

{"compound": "COc1cccc(C2(O)CCC(NS(=O)(=O)c3cccs3)CC2CN(C)C)c1 (centres undefined)", "readingUnit": "%", "valueReported": 0}
{"compound": "COc1cccc(C2(O)CCC(NS(=O)(=O)c3ccccc3)CC2CN(C)C)c1 (centres undefined)", "readingUnit": "%", "valueReported": 7.51}
{"compound": "COc1cccc(C2(O)CCC(NS(=O)(=O)c3cccc(Cl)c3)CC2CN(C)C)c1 (centres undefined)", "readingUnit": "%", "valueReported": 0}
{"compound": "COc1cccc(C2(OC(=O)c3ccccc3)CCC(N(C)S(=O)(=O)Cc3ccccc3)CC2CN(C)C)c1 (centres undefined)", "readingUnit": "%", "valueReported": 0}
{"compound": "COc1cccc(C2(O)CCC(N(Cc3ccccc3)S(=O)(=O)c3cccs3)CC2CN(C)C)c1 (centres undefined)", "readingUnit": "%", "valueReported": 0}
{"compound": "CN(C)CC1CC(N(Cc2ccccc2)S(=O)(=O)c2cccc(Cl)c2)CCC1(O)c1cccc(O)c1.Cl (centres undefined)", "readingUnit": "%", "valueReported": 20.7}
{"compound": "COc1cccc(C2(O)CCC(NS(=O)(=O)Cc3ccccc3)CC2CN(C)C)c1 (centres undefined)", "readingUnit": "%", "valueReported": 1}
{"compound": "COc1cccc(C2(O)CCCCC2CN(C)C)c1 (centres undefined)", "readingUnit": "%", "valueReported": 0}
{"compound": "COc1cccc(C2(O)CCC(N(Cc3ccccc3)S(=O)(=O)c3cccc(Cl)c3)CC2CN(C)C)c1 (centres undefined)", "readingUnit": "%", "valueReported": 0}

###

# system: Mu-type opioid receptor (Rattus norvegicus) (UniProt P33535)
# methodSummary: Displacement of [3H] DAMGO from rat mu-opioid receptor extracted from CHO cell membrane at 0.1 uM by liquid scintillation counting analysis relative to control
# Type: cell membranes
measuredAttribute: inhibition (%)

{"compound": "COc1cccc(C2(O)CCC(NS(=O)(=O)Cc3cccc(Cl)c3)CC2CN(C)C)c1 (centres undefined)", "valueReported": 35.8}
{"compound": "COc1cccc(C2(O)CCC(NS(=O)(=O)c3cccc(Cl)c3)CC2CN(C)C)c1 (centres undefined)", "valueReported": 22.8}
{"compound": "COc1cccc(C2(O)CCC(N(C)S(=O)(=O)c3cccc(Cl)c3)CC2CN(C)C)c1 (centres undefined)", "valueReported": 16.5}
{"compound": "COc1cccc(C2(O)CCC(NS(=O)(=O)c3ccccc3)CC2CN(C)C)c1 (centres undefined)", "valueReported": 11.8}
{"compound": "COc1cccc(C2(OC(=O)c3ccccc3)CCC(NS(=O)(=O)c3ccccc3)CC2CN(C)C)c1 (centres undefined)", "valueReported": 18.1}
{"compound": "COc1cccc(C2(O)CCC(N(Cc3ccccc3)S(=O)(=O)c3cccc(Cl)c3)CC2CN(C)C)c1 (centres undefined)", "valueReported": 6.7}
{"compound": "COc1cccc(C2(OC(=O)c3ccccc3)CCC(N(C)S(=O)(=O)Cc3ccccc3)CC2CN(C)C)c1 (centres undefined)", "valueReported": 3.3}
{"compound": "COc1cccc(C2(O)CCC(N(Cc3ccccc3)S(=O)(=O)c3ccccc3)CC2CN(C)C)c1 (centres undefined)", "valueReported": 14.8}
{"compound": "COc1cccc(C2(OC(=O)c3ccccc3)CCC(NS(=O)(=O)c3cccc(Cl)c3)CC2CN(C)C)c1 (centres undefined)", "valueReported": 14.4}

###

# system: Mu-type opioid receptor (Rattus norvegicus)
# Sequence (P33535 whole entry): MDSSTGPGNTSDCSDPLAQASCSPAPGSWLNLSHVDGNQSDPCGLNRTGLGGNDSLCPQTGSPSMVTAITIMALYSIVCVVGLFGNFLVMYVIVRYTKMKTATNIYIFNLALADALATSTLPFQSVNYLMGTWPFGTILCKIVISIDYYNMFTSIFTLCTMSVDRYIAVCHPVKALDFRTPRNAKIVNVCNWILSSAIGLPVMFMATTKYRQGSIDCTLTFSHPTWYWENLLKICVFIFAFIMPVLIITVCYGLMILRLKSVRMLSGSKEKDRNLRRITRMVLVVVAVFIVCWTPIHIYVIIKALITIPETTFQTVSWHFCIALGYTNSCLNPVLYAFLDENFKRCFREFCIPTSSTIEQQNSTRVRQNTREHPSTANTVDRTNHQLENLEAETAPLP

{"molecule": "CN(C)CC1CC(N(Cc2ccccc2)S(=O)(=O)c2cccc(Cl)c2)CCC1(O)c1cccc(O)c1.Cl (stereo unspecified)", "system": "Mu-type opioid receptor (Rattus norvegicus)", "readingUnit": "nM", "Ki": 18.8}

###

# system: Delta-type opioid receptor (Rattus norvegicus) (UniProt P33533)
# Sequence (P33533 whole entry): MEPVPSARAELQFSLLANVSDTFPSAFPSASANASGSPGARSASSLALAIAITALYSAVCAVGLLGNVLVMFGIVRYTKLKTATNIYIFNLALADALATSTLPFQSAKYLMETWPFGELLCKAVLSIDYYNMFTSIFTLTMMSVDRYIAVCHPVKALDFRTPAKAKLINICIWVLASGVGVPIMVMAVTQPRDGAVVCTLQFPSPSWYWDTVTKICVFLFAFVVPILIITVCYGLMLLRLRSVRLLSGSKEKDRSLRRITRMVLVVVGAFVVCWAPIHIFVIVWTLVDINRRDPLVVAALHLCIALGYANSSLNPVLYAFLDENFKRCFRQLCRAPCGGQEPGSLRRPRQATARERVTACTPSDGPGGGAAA
# methodSummary: Displacement of [3H] DPDPE from rat delta-opioid receptor extracted from CHO cell membrane at 0.1 uM by liquid scintillation counting analysis relative to control
# Assay type: cell membranes
measuredAttribute: inhibition (%)

{"compound": "COc1cccc(C2(O)CCC(N(C)S(=O)(=O)c3cccs3)CC2CN(C)C)c1 (stereo not drawn)", "valueReported": 30.1}
{"compound": "COc1cccc(C2(O)CCC(N(C)S(=O)(=O)c3ccccc3)CC2CN(C)C)c1 (stereo not drawn)", "valueReported": 12.9}
{"compound": "COc1cccc(C2(O)CCC(NS(=O)(=O)Cc3cccc(Cl)c3)CC2CN(C)C)c1 (stereo not drawn)", "valueReported": 0}
{"compound": "COc1cccc(C2(O)CCC(N(Cc3ccccc3)S(=O)(=O)c3ccccc3)CC2CN(C)C)c1 (stereo not drawn)", "valueReported": 0}
{"compound": "COc1cccc(C2(O)CCC(N(C)S(=O)(=O)c3cccc(Cl)c3)CC2CN(C)C)c1 (stereo not drawn)", "valueReported": 14.8}
{"compound": "COc1cccc(C2(OC(=O)c3ccccc3)CCC(NS(=O)(=O)c3ccccc3)CC2CN(C)C)c1 (stereo not drawn)", "valueReported": 0}
{"compound": "COc1cccc(C2(OC(=O)c3ccccc3)CCC(N(C)S(=O)(=O)Cc3cccc(Cl)c3)CC2CN(C)C)c1 (stereo not drawn)", "valueReported": 0}
{"compound": "COc1cccc(C2(OC(=O)c3ccccc3)CCC(NS(=O)(=O)c3cccc(Cl)c3)CC2CN(C)C)c1 (stereo not drawn)", "valueReported": 0}

###

# methodSummary: Oral bioavailability in ICR mouse at 5 mg/kg measured after 24 hrs
# Format: ADME, organism-based
# conditionsUsed: in vivo
measuredAttribute: bioavailability (%)

{"smilesCode": "COc1cccc([C@@]2(O)CC[C@H](N(Cc3ccccc3)S(=O)(=O)c3cccc(Cl)c3)C[C@@H]2CN(C)C)c1.Cl", "readingUnit": "%", "valueReported": 0.53}
